- Test system: Enterococcus faecium (9001)
- Method notes: Antibiogram by diffusion technique (CA-SFM 2008); also: key: sensitive (S): strains for which the MIC of the antibiotic tested is less than or equal to the lower critical concentration c; resistant (R): strains for which the MIC of the antibiotic tested are greater than the upper critical concentration C; intermediate sensitivity (I): strains for which the MIC of the antibiotic tested and the corresponding diameter are between the two critical concentrations and the two critical diameters
- Assay type: cell-based
- Test settings: strain 9001
- Procedure: […] The sensitivity of strains to antibiotics was determined by a diffusion technique according to the 2008 recommendations by the Antibiogram Committee of the French Microbiology Society (CA-SFM). […] The tests were carried out on Mueller-Hinton agar. […] The dishes are read after 24 hours of incubation at 37° C. The raw results are then interpreted according to the interpretative reading rules of the CA-SFM.
Property measured: Category

Examples from the recorded data:
[[record]]
compound_smiles = "O=C(N[C@H](CO)[C@H](O)c1ccc([N+](=O)[O-])cc1)C(Cl)Cl"
property_measured = "Category"
result = "S"

[[record]]
compound_smiles = "CN[C@@H]1[C@H](O[C@H]2[C@H](O[C@H]3[C@H](O)[C@@H](O)[C@H](N=C(N)N)[C@@H](O)[C@@H]3N=C(N)N)O[C@@H](C)[C@]2(O)C=O)O[C@@H](CO)[C@H](O)[C@H]1O"
property_measured = "Category"
result = "R"

[[record]]
compound_smiles = "CCC[C@@H]1C[C@@H](C(=O)N[C@@H]([C@H]2O[C@H](SC)[C@H](O)[C@@H](O)[C@H]2O)[C@H](C)Cl)N(C)C1"
property_measured = "Category"
result = "R"

[[record]]
compound_smiles = "NC[C@H]1O[C@H](O[C@H]2[C@H](O)[C@@H](O[C@H]3O[C@H](CO)[C@@H](O)[C@H](N)[C@H]3O)[C@H](N)C[C@@H]2N)[C@H](O)[C@@H](O)[C@@H]1O"
property_measured = "Category"
result = "R"


Enquiry: Quote Category reported for CC[C@H]1OC(=O)[C@H](C)[C@@H](O[C@H]2C[C@@](C)(OC)[C@@H](O)[C@H](C)O2)[C@H](C)[C@@H](O[C@@H]2O[C@H](C)C[C@H](N(C)C)[C@H]2O)[C@](C)(O)C[C@@H](C)C(=O)[C@H](C)[C@@H](O)[C@]1(C)O please.
Return: R
